System: PC-14
Test: relative viability (nuclei count vs DMSO), 5 days (fraction); higher = more cells survive
Details: first compound 0.1581 µM
For each record, write down the corresponding relative viability.
Give bare numbers.

# annotated cases, reported relative viability shown
Nc1ccn([C@@H]2O[C@H](CO)[C@@H](O)[C@@H]2O)c(=O)n1 [Cytarabine] + COc1cccc2cc(-c3nc([C@H]4CC[C@H](C(=O)O)CC4)n4ncnc(N)c34)[nH]c12 [OSI-027] (partner 0.5 µM)    0.166
COc1cc2nccc(Oc3ccc(NC(=O)Nc4cc(C)on4)c(Cl)c3)c2cc1OC [Tivozanib] + Nc1ncn([C@H]2C[C@H](O)[C@@H](CO)O2)c(=O)n1 [Decitabine] (partner 2 µM)    0.252
COc1cc2nccc(Oc3ccc(NC(=O)Nc4cc(C)on4)c(Cl)c3)c2cc1OC [Tivozanib] + CC1(C)CCC(c2ccc(Cl)cc2)=C(CN2CCN(c3ccc(C(=O)NS(=O)(=O)c4ccc(N[C@H](CCN5CCOCC5)CSc5ccccc5)c(S(=O)(=O)C(F)(F)F)c4)cc3)CC2)C1 [Navitoclax] (partner 0.5 µM)    1.07

Could you now look at the following compound, please?
## Input API: value(readout= relative viability, system= PC-14, query= Nc1ccn([C@@H]2O[C@H](CO)[C@@H](O)[C@@H]2O)c(=O)n1 [Cytarabine] + Nc1nc2[nH]cc(CCc3ccc(C(=O)N[C@@H](CCC(=O)O)C(=O)O)cc3)c2c(=O)[nH]1 [Pemetrexed] (partner 0.2 µM) )
## Output 0.0581

---

Test system: NCI-H2228
Assay: relative viability (nuclei count vs DMSO), 5 days (fraction); higher = more cells survive
Settings: first compound 0.8 µM
measured-property: relative viability
Answers are plain numbers.

Solved cases (4 shown):
O=c1[nH]c2ccccc2n1C1CCN(CCCC(c2ccc(F)cc2)c2ccc(F)cc2)CC1 [Pimozide] + CC(C)C[C@H](NC(=O)[C@H](Cc1ccccc1)NC(=O)c1cnccn1)B(O)O [Bortezomib] (partner 0.002 µM)    0.904
O=c1[nH]c2ccccc2n1C1CCN(CCCC(c2ccc(F)cc2)c2ccc(F)cc2)CC1 [Pimozide] + N=C(N)NC(=N)NCCc1ccccc1 [Phenformin] (partner 250 µM)    0.338
Cc1cnc(-c2cnc(NCCNc3ccc(C#N)cn3)nc2-c2ccc(Cl)cc2Cl)[nH]1 + CCNC(=O)c1noc(-c2cc(C(C)C)c(O)cc2O)c1-c1ccc(CN2CCOCC2)cc1 [Luminespib] (partner 0.01 µM)    0.133
O=c1[nH]c2ccccc2n1C1CCN(CCCC(c2ccc(F)cc2)c2ccc(F)cc2)CC1 [Pimozide] + CC(=O)Nc1cccc(-n2c(=O)n(C3CC3)c(=O)c3c(Nc4ccc(I)cc4F)n(C)c(=O)c(C)c32)c1 [Trametinib] (partner 0.02 µM)    0.522

Query molecule follows.
## Input // relative viability lookup, key: O=c1[nH]c2ccccc2n1C1CCN(CCCC(c2ccc(F)cc2)c2ccc(F)cc2)CC1 [Pimozide] + CC(=O)c1c(C)c2cnc(Nc3ccc(N4CCNCC4)cn3)nc2n(C2CCCC2)c1=O [Palbociclib] (partner 0.5 µM)
## Output 0.606

---

Test system: PC-14
Test: relative viability (nuclei count vs DMSO), 5 days (fraction); higher = more cells survive
Settings: first compound 0.02 µM
Give measured relative viability for each item. Keep answers brief.
One number for each entry.

Would you mind listing relative viability for each of the following compounds?
1. CC(=O)O[C@@]12CO[C@@H]1C[C@H](O)[C@@]1(C)C(=O)[C@H](O)C3=C(C)[C@@H](OC(=O)[C@H](O)[C@@H](NC(=O)OC(C)(C)C)c4ccccc4)C[C@@](O)([C@@H](OC(=O)c4ccccc4)[C@H]21)C3(C)C [Docetaxel] + Cc1nc(Nc2ncc(C(=O)Nc3c(C)cccc3Cl)s2)cc(N2CCN(CCO)CC2)n1 [Dasatinib] (partner 0.075 µM)
2. CC(=O)O[C@@]12CO[C@@H]1C[C@H](O)[C@@]1(C)C(=O)[C@H](O)C3=C(C)[C@@H](OC(=O)[C@H](O)[C@@H](NC(=O)OC(C)(C)C)c4ccccc4)C[C@@](O)([C@@H](OC(=O)c4ccccc4)[C@H]21)C3(C)C [Docetaxel] + CS(=O)(=O)N1CCN(Cc2cc3nc(-c4cccc5[nH]ncc45)nc(N4CCOCC4)c3s2)CC1 [Pictilisib] (partner 1 µM)
3. CC(=O)O[C@@]12CO[C@@H]1C[C@H](O)[C@@]1(C)C(=O)[C@H](O)C3=C(C)[C@@H](OC(=O)[C@H](O)[C@@H](NC(=O)OC(C)(C)C)c4ccccc4)C[C@@](O)([C@@H](OC(=O)c4ccccc4)[C@H]21)C3(C)C [Docetaxel] + C[C@@H](Oc1cc(-c2cnn(C3CCNCC3)c2)cnc1N)c1c(Cl)ccc(F)c1Cl [Crizotinib] (partner 1 µM)
4. CC(=O)O[C@@]12CO[C@@H]1C[C@H](O)[C@@]1(C)C(=O)[C@H](O)C3=C(C)[C@@H](OC(=O)[C@H](O)[C@@H](NC(=O)OC(C)(C)C)c4ccccc4)C[C@@](O)([C@@H](OC(=O)c4ccccc4)[C@H]21)C3(C)C [Docetaxel] + Nc1nc2[nH]cc(CCc3ccc(C(=O)N[C@@H](CCC(=O)O)C(=O)O)cc3)c2c(=O)[nH]1 [Pemetrexed] (partner 0.2 µM)

## Output
[0.0231, 0.0293, 0.0748, 0.0414]
